# subjectOfTest: Pin1 (Homo sapiens, UniProt Q13526)
# Sequence (Q13526 whole entry): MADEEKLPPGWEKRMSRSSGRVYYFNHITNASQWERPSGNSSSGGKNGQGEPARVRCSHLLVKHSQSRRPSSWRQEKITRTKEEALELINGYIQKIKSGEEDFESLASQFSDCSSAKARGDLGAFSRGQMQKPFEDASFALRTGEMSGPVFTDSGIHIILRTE
# assayExplanation: confirmatory Pin1 fluorescence polarization competition assay (Alexa488 reconfirmed);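 note: Pin1 competition with a HiFluor488-labelled peptide probe, read as fluorescence polarization after 10 min at room temperature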
measurementType: IC50 (µM)
Form entry: value (µM) — number only.

## Input Looking for the measured IC50 of O=C(O)C1Nc2ccc(Br)cc2C2C=CCC12 (stereo not shown) , can you help?
## Output 10

## Input Looking for the measured IC50 of `O=S(=O)(O)c1cc(O)c2cc(Nc3ccccc3)ccc2c1` , can you help?
## Output 11

* * *

# subjectOfTest: Pin1 (Homo sapiens)
# assayExplanation: Pin1 fluorescence polarization competition assay, primary qHTS (HiFluor-488 / Alexa488 probe);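 note: Pin1 protein with fluorescent peptide probe, compound displacement read by fluorescence polarization, percent inhibition derived from corrected polarization values, concentration-response curves in 1536-well format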
# experimentalConditions: Alexa488 Primary Potency, primary qHTS
pIC50: −log10 of the molar value.
met means recorded pIC50 is 5 or above; not met means it is below 5.

Solved cases (5 shown):
molecule	subjectOfTest	categoryLabel
C=CCOc1ccc(C(c2c(C(=O)O)[nH]c3ccccc23)c2c(C(=O)O)[nH]c3ccccc23)cc1	Pin1 (Homo sapiens)	not met
O=C(O)C1Nc2c(O)cccc2C2C=CCC12 (stereo not drawn)	Pin1 (Homo sapiens)	met
COc1ccc(S(=O)(=O)N2CCN(C(=O)c3cc4c(s3)CCC4)CC2)cc1	Pin1 (Homo sapiens)	not met
O=C(O)c1[nH]c2ccccc2c1C(c1cc(Br)ccc1O)c1c(C(=O)O)[nH]c2ccccc12	Pin1 (Homo sapiens)	not met
Cc1oc(-c2ccc3c(c2)OCCO3)cc1C(=O)NC(Cc1ccccc1)C(=O)O (stereo not drawn)	Pin1 (Homo sapiens)	not met

Now let's try a different one.
## Input Hi, just wondering whether `COc1ccc(NC(=O)CN(C)C(=O)c2cc3c(s2)CCC3)cc1` shows pIC50 of 5 or higher.
## Output not met

* * *

# subjectOfTest: Pin1 (Homo sapiens)
# assayExplanation: Pin1 fluorescence polarization competition assay with Tamra-probe (secondary)
# experimentalConditions: read-out: Tamra Secondary Efficacy
measurementType: Emax
# do not omit the unit; it follows the number

molecule	result
CCCCCCCCCCCCN1[C@@H](C(=O)O)c2cc(C(F)(F)F)ccc2S1(=O)=O	103%

## Input Request - read-out Emax | tested on Pin1 (Homo sapiens) | molecule CC(=O)c1ccc2c(c1)C1C=CCC1C(C(=O)O)N2 (stereo not drawn)
## Output 95%

## Input Request - read-out Emax | tested on Pin1 (Homo sapiens) | molecule `O=S(=O)(O)c1cc(O)c2cc(Nc3ccccc3)ccc2c1`
## Output 300%

## Input Request - read-out Emax | tested on Pin1 (Homo sapiens) | molecule `CCOc1cc(Br)cc(C(c2c(C(=O)O)[nH]c3ccccc23)c2c(C(=O)O)[nH]c3ccccc23)c1O`
## Output 71%

## Input Request - read-out Emax | tested on Pin1 (Homo sapiens) | molecule `O=C(O)c1[nH]c2ccccc2c1C(c1cc(Cl)cc([N+](=O)[O-])c1O)c1c(C(=O)O)[nH]c2ccccc12`
## Output 83%

## Input Request - read-out Emax | tested on Pin1 (Homo sapiens) | molecule `O=S(=O)(Nc1nc(-c2sccc2Cl)cs1)c1cc(Cl)ccc1Cl`
## Output 100%

## Input Request - read-out Emax | tested on Pin1 (Homo sapiens) | molecule `O=C(O)c1cc2cccc([N+](=O)[O-])c2[nH]1`
## Output 82%

## Input Request - read-out Emax | tested on Pin1 (Homo sapiens) | molecule `Cc1ccc(N(Cc2cc(=O)[nH]c3ccccc23)C(=O)CCl)cc1`
## Output 97%

## Input Request - read-out Emax | tested on Pin1 (Homo sapiens) | molecule `COc1ccc(NC(=O)CN(C)C(=O)c2cc3c(s2)CCC3)cc1`
## Output 101%

## Input Request - read-out Emax | tested on Pin1 (Homo sapiens) | molecule `C=CCOc1ccc(C(c2c(C(=O)O)[nH]c3ccccc23)c2c(C(=O)O)[nH]c3ccccc23)cc1`
## Output 78%

## Input Request - read-out Emax | tested on Pin1 (Homo sapiens) | molecule O=C1OC(/C(=C\Nc2cc(Cl)ccc2O)[N+](=O)[O-])c2ccccc21 (stereo not drawn)
## Output 92%
